# system: Cytochrome P450 2C9 (Homo sapiens)
# method-summary: qHTS Assay for Inhibitors and Substrates of Cytochrome P450 2C9 (AID 883); note: nearly all actives have a fitted effect of over 60% in size
# reported-conditions: recombinant CYP2C9, luciferin-H luminescence, 60 min; series mostly up to 11.4 µM
Records with an inconclusive call do not appear. The source made the active and inactive calls. Calls come from the whole dose curve; as a rule, active = well fitted inhibition curve with a large enough effect; inconclusive = small, poorly fitted or top-dose-only effect; inactive = no such curve, though single readings can be large or run the other way.
Answer with one of the outcomes given here: active, inactive

**Query** I would be grateful if you could indicate the recorded call for `COCCn1c(=O)c(-c2cccc(C#N)c2)nc2cnc(N3CCNCC3)nc21` .
**Result** active

**Query** I would be grateful if you could indicate the recorded call for `O=C(c1ccc([N+](=O)[O-])cc1)[C@@H](Br)[C@@H](Br)c1ccnc2ccccc12` .
**Result** active

**Query** I would be grateful if you could indicate the recorded call for `ON(CCc1ccncc1)Cc1ccccc1` .
**Result** active

**Query** I would be grateful if you could indicate the recorded call for `O=C(O)CCCCCC[C@@H]1C(=O)NC(=O)N1CC[C@@H](O)C1CCCCC1` .
**Result** inactive

**Query** I would be grateful if you could indicate the recorded call for `CC(CCC(=O)O)(c1ccc(O)cc1)c1ccc(O)cc1` .
**Result** inactive

**Query** I would be grateful if you could indicate the recorded call for `c1ccc(SC(Sc2ccccc2)c2ccc3c(c2)OCO3)cc1` .
**Result** active

**Query** I would be grateful if you could indicate the recorded call for N#C[C@H](c1ccccc1)N1CCCN([C@@H](C#N)c2ccccc2)C1c1ccccc1O (some centres undefined) .
**Result** active

**Query** I would be grateful if you could indicate the recorded call for `COc1cccc2[nH]c(-c3ccccn3)nc12` .
**Result** inactive

**Query** I would be grateful if you could indicate the recorded call for `ClC(=Nc1cccc2ccccc12)N(c1ccccc1)c1ccccc1` .
**Result** active

**Query** I would be grateful if you could indicate the recorded call for `Cc1[nH]c2ccccc2c1-c1cc(-c2cc(-c3c(C)[nH]c4ccccc34)on2)no1` .
**Result** inactive

**Query** I would be grateful if you could indicate the recorded call for `Nc1ncnc2nc[nH]c12.Nc1ncnc2nc[nH]c12.[Cl][Pt]([Cl])([Cl])[Cl]` .
**Result** inactive

**Query** I would be grateful if you could indicate the recorded call for `CSc1nc(N)c2ncn([C@@H]3O[C@@H](COP(=O)(O)OP(=O)(O)OP(=O)(O)O)[C@@H](O)[C@H]3O)c2n1` .
**Result** inactive

**Query** I would be grateful if you could indicate the recorded call for Cc1c2cccc(Sc3ccccc3)c2c2c3c(cccc13)[S+](c1ccccc1)C2 (centres undefined) .
**Result** active

**Query** I would be grateful if you could indicate the recorded call for `O=S(=O)(O)c1cc(S(=O)(=O)O)c2c(N=Nc3cccc4ccccc34)c(O)ccc2c1` .
**Result** inactive

**Query** I would be grateful if you could indicate the recorded call for `CCNC(=O)[C@@H]1O[C@@H](n2cnc3c(NCc4ccccc4)ncnc32)[C@@H](O)[C@H]1O` .
**Result** inactive

**Query** I would be grateful if you could indicate the recorded call for `Cc1cc(Cl)ccc1Nc1sc(C(=O)c2cc3cc(Cl)ccc3o2)c(N)c1C#N` .
**Result** active

**Query** I would be grateful if you could indicate the recorded call for `O=C1OC(=O)[C@@H]2[C@@H]1[C@@H]1CC[C@H]2O1` .
**Result** inactive

**Query** I would be grateful if you could indicate the recorded call for `O=C(O)CSCC(=O)c1ccccc1` .
**Result** inactive

**Query** I would be grateful if you could indicate the recorded call for `CC(C)CO[C@H](c1ccc2c(c1)OCO2)[C@H](C)Br` .
**Result** active

**Query** I would be grateful if you could indicate the recorded call for `O=c1c(CCc2ccccc2)nc2cnc(Oc3cccc(Cl)c3)nc2n1C[C@H]1CCCO1` .
**Result** active

**Query** I would be grateful if you could indicate the recorded call for `CCCC[C@]1(C2CCCC2)Cc2cc(OCC(=O)O)c(Cl)c(Cl)c2C1=O` .
**Result** active

**Query** I would be grateful if you could indicate the recorded call for CC1=C/C(=N/O)C([C@H]2C=C(C)CC(C)(C)[C@@H]2O)C(C)(C)C1 (some centres undefined) .
**Result** active

**Query** I would be grateful if you could indicate the recorded call for `COCCn1c(=O)c(-c2cccs2)nc2cnc(Oc3ccc(OC)cc3)nc21` .
**Result** active

**Query** I would be grateful if you could indicate the recorded call for `C[C@@H](C(=O)O)/C(=C/c1ccc2c(c1)OCO2)C(=O)O` .
**Result** active

**Query** I would be grateful if you could indicate the recorded call for `Oc1cccc2ccc(SSc3ccc4cccc(O)c4n3)nc12` .
**Result** active

**Query** I would be grateful if you could indicate the recorded call for `CN1C[C@@H](O)[C@@H](O)[C@@H](O)[C@@H]1CO` .
**Result** inactive

**Query** I would be grateful if you could indicate the recorded call for `CC(C)N(Cc1ccccc1)S(=O)(=O)c1n[nH]c(C(C)(C)C)n1` .
**Result** active

**Query** I would be grateful if you could indicate the recorded call for `N[C@@H](Cc1ncccn1)C(=O)O` .
**Result** inactive

**Query** I would be grateful if you could indicate the recorded call for `O=C(O)CCCC[C@H]1CCSS1` .
**Result** inactive

**Query** I would be grateful if you could indicate the recorded call for `c1ccc(CSCCc2ccncc2)cc1` .
**Result** active

**Query** I would be grateful if you could indicate the recorded call for `c1ccc(SCCc2ccncc2)cc1` .
**Result** active

**Query** I would be grateful if you could indicate the recorded call for `c1ccc(CNCCN2CCNCC2)nc1` .
**Result** inactive

**Query** I would be grateful if you could indicate the recorded call for `CC#C[C@@]1(O)CC[C@@H]2[C@@H]3CCC4=CC(=O)CCC4=C3[C@@H](c3ccc(N(C)C)cc3)C[C@]21C` .
**Result** active

**Query** I would be grateful if you could indicate the recorded call for `NNC(=O)CCc1ccc2ccc3ccccc3c2c1` .
**Result** active

**Query** I would be grateful if you could indicate the recorded call for `O=c1[nH]c2[nH]c(=S)[nH]c(=S)c2[nH]1` .
**Result** active

**Query** I would be grateful if you could indicate the recorded call for `COc1ccc(/C=C(\C#N)C(N)=O)c(OC)c1` .
**Result** inactive

**Query** I would be grateful if you could indicate the recorded call for `CCCCC[C@@H](O)[C@@H]1C(=O)O[C@@H](C)[C@@H](O)\C=C/C=C\C=C/C=C\C=C(\C)[C@H](O)C[C@H](O)C[C@H](O)C[C@H](O)C[C@H](O)C[C@H](O)C[C@@H]1O` .
**Result** inactive

**Query** I would be grateful if you could indicate the recorded call for `O=C(O)CC(CC(=O)O)n1cccc1` .
**Result** inactive

**Query** I would be grateful if you could indicate the recorded call for `N=C(N)SCCN1CCCCC1` .
**Result** inactive

**Query** I would be grateful if you could indicate the recorded call for `O=c1cnc2cnc(Oc3ccccc3)nc2n1CCc1ccccc1` .
**Result** active

**Query** I would be grateful if you could indicate the recorded call for `COc1ccc(CCCC(=O)O)c(C)c1` .
**Result** inactive

**Query** I would be grateful if you could indicate the recorded call for `Nc1cccc2nsnc12` .
**Result** inactive

**Query** I would be grateful if you could indicate the recorded call for `COc1ccc2ccccc2c1/C=C\C(=O)c1ccccc1` .
**Result** active

**Query** I would be grateful if you could indicate the recorded call for `CC(C)(C)[C@@]1(O)CCN2C[C@@H]3c4ccccc4CCc4cccc(c43)[C@@H]2C1` .
**Result** active

---

# method-summary: Cellular Toxicity (caspase-3) H-4-II-E (AID 663);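 note: cells exposed to compound for 16 hr before readout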
# reported-conditions: H-4-II-E rat hepatoma; caspase-3 activation; series mostly up to 92.2 µM
Records with an inconclusive call do not appear. Active and inactive are the calls of the source. Calls follow the shape of the dose curve; as a rule, active = well fitted activation curve with a large enough effect; inconclusive = small, poorly fitted or top-dose-only effect; inactive = flat fitted curve, though single readings scatter.
result-type: outcome

molecule: O=C=Nc1ccc(Cl)c(Cl)c1
outcome: inactive
//
molecule: CCCCC(CC)COCCCN (stereo not given)
outcome: inactive
//
molecule: OC1CCCCC1
outcome: inactive
//
molecule: CCc1ccc(C(c2ccc(CC)cc2)C(Cl)Cl)cc1
outcome: inactive
//
molecule: CC(=O)c1ccc(Cl)c(Cl)c1Cl
outcome: inactive
//
molecule: CC(C)(C)C(=O)C1C(=O)c2ccccc2C1=O
outcome: inactive

**Query** Requested read-out: outcome. Entry: `C=CC(=O)CC`
**Result** inactive

---

# method-summary: qHTS Assay for Identification of Small Molecule Antagonists for NFkB Signaling Pathway (AID 895)
# reported-conditions: NFkB beta-lactamase reporter cells, FRET ratio 460/530, stimulated with 10 pM TNF alpha; series mostly up to 38.3 µM
Inconclusive results are not listed. Calls of active or inactive are those of the source. Calls come from the whole dose curve; as a rule, active = well fitted inhibition curve with a large enough effect in the signal ratio, with a control signal flat (not every such curve was filed as active); inconclusive = small, poorly fitted or top-dose-only effect, or effect the other way, or a change in a side signal; inactive = flat fitted curve, though single readings scatter; the % refers to the signal ratio.
Answer with one of the outcomes given here: active, inactive

**Query** I would be grateful if you could indicate the recorded call for `CN1CC[C@@]2(CCN3CCc4c(oc5ccccc45)[C@@H]3C2)N(C)C1=O` .
**Result** inactive

**Query** I would be grateful if you could indicate the recorded call for `OC[C@@H]1O[C@@H](n2cnc3c(NC4CCCCC4)ncnc32)[C@@H](O)[C@H]1O` .
**Result** inactive

**Query** I would be grateful if you could indicate the recorded call for `C=C/C(C)=C/[C@]1(C)SC(=O)C(C)=C1O` .
**Result** inactive

**Query** I would be grateful if you could indicate the recorded call for `CSc1nc(N)c2ncn([C@@H]3O[C@@H](COP(=O)(O)OP(=O)(O)O)[C@@H](O)[C@H]3O)c2n1` .
**Result** inactive

**Query** I would be grateful if you could indicate the recorded call for `CC(C)C[C@H](NC(=O)[C@@H](O)[C@@H](N)Cc1ccccc1)C(=O)O` .
**Result** active

**Query** I would be grateful if you could indicate the recorded call for `NCC[C@H]1CCC[C@H](CCN)N1` .
**Result** inactive

**Query** I would be grateful if you could indicate the recorded call for `C=CCN1CCc2c(cc(O)c(O)c2Cl)[C@H](c2ccccc2)C1` .
**Result** active

**Query** I would be grateful if you could indicate the recorded call for `CC1(C)CCC(NC(=O)[C@H](N)CCC(=O)O)CC1` .
**Result** inactive

**Query** I would be grateful if you could indicate the recorded call for `O=[N+]([O-])c1ccc(CSc2ncnc3c2ncn3[C@@H]2O[C@@H](CO)[C@@H](O)[C@H]2O)cc1` .
**Result** inactive

**Query** I would be grateful if you could indicate the recorded call for `Cc1ccccc1N1CCN(S(=O)(=O)C[C@@]23CC[C@H](C[C@H]2NC(=O)[C@@H](N)CCS(C)(=O)=O)C3(C)C)CC1` .
**Result** inactive

**Query** I would be grateful if you could indicate the recorded call for `OC[C@@H]1NC[C@@H](O)[C@H]1O` .
**Result** inactive

**Query** I would be grateful if you could indicate the recorded call for `Cc1cn([C@H]2C[C@H](N=[N+]=[N-])[C@H](CO)O2)c(=O)[nH]c1=O` .
**Result** inactive

**Query** I would be grateful if you could indicate the recorded call for `Nc1ncnc2c1nc(Br)n2[C@@H]1O[C@H]2COP(=O)(O)O[C@@H]2[C@H]1O` .
**Result** inactive

**Query** I would be grateful if you could indicate the recorded call for `CNC(=O)[C@@H]1O[C@@H](n2cnc3c(NCc4ccc(N)cc4)ncnc32)[C@@H](O)[C@H]1O` .
**Result** active

**Query** I would be grateful if you could indicate the recorded call for `COc1cc([C@H](O)CO)ccc1O` .
**Result** inactive

**Query** I would be grateful if you could indicate the recorded call for `CO/N=C(\C(=O)N[C@@H]1C(=O)N2C(C(=O)O)=C(CSc3nc(=O)c(O)nn3C)CS[C@@H]12)c1csc(N)n1` .
**Result** inactive

**Query** I would be grateful if you could indicate the recorded call for `C[C@@H]1O[C@@H](n2cc(F)c(=O)[nH]c2=O)[C@H](O)[C@@H]1O` .
**Result** inactive

**Query** I would be grateful if you could indicate the recorded call for `C[C@@H]1C(=O)N(C)C(=O)c2nc[nH]c21` .
**Result** inactive

**Query** I would be grateful if you could indicate the recorded call for `OC[C@@H]1NC[C@@H](O)[C@@H](O)[C@H]1O` .
**Result** inactive

**Query** I would be grateful if you could indicate the recorded call for `COc1cc2c(cc1OC)[C@H](c1ccccc1)CN(C)CC2` .
**Result** inactive

**Query** I would be grateful if you could indicate the recorded call for `O=C(O)CCCC[C@H]1CCSS1` .
**Result** inactive
